Measurement protocol: Quantitative High-Throughput drug screen in 47 multiple myeloma cell lines against the NCATS MIPE library collection: KMM1_JCRB cell viability assay (AID 1918960); also: nearly all actives have a fitted effect of over 30% in size
Test context: KMM1 myeloma viability, CellTiter-Glo ATP luminescence, 48 h; series mostly up to 45.8 µM
Records with an inconclusive call do not appear. Active and inactive are the calls of the source. Calls follow the shape of the dose curve; as a rule, active = well fitted cell-killing curve with a large enough effect; inconclusive = small, poorly fitted or top-dose-only effect, or effect the other way; inactive = no such curve, though single readings can be large or run the other way.
Pick one: active, inactive

Exercise: Record request — test call for CN(C)CC[C@H](c1ccc(Cl)cc1)c1ccccn1
Key: inactive

Exercise: Record request — test call for CCN(CC)Cc1ccc2cc(COC(=O)Nc3ccc(C(=O)NO)cc3)ccc2c1
Key: active

Exercise: Record request — test call for C[C@H](NCc1ccc(OCc2cccc(F)c2)cc1)C(N)=O
Key: active

Exercise: Record request — test call for CN(C)CC(=O)N1CCC(c2ccc(NC(=O)c3ncc(C#N)[nH]3)c(C3=CCCCC3)c2)CC1
Key: inactive

Exercise: Record request — test call for N#CC(=Cc1ccc(O)c(O)c1)C(=O)NCc1ccccc1
Key: inactive

Exercise: Record request — test call for Cn1cnc(=N)c2[nH]cnc21
Key: active

Exercise: Record request — test call for c1cc(CN2CCCNCCNCCCNCC2)ccc1CN1CCCNCCNCCCNCC1
Key: inactive

Exercise: Record request — test call for O=C1c2c(O)cccc2[C@@H]([C@@H]2O[C@H](CO)[C@@H](O)[C@H](O)[C@H]2O)c2cc(CO)cc(O)c21
Key: inactive

Exercise: Record request — test call for COc1ccc(Nc2cc(-c3cnc(N)nc3)nc(N3CCOCC3)n2)cn1
Key: active

Exercise: Record request — test call for CCCCCCCCCCCC(CC1OC(=O)C1CCCCCC)OC(=O)C(CC(C)C)NC=O (stereo not given)
Key: inactive
